system: KB-3-1; assay: Cytotoxic Profiling of Annotated Libraries Using Quantitative High-Throughput Screening (AID 1296008); details: Five cell lines viability, CellTiter-Glo ATP luminescence, 48-72 h; stronger effect = lower value; also: % is scaled to controls: 0 for no effect and ±100 for the full control effect; nearly all actives have a fitted effect of over 60% in size
Inconclusive results are not listed. Active and inactive are the calls of the source. Calls follow the shape of the dose curve; as a rule, active = well fitted inhibition curve with a large enough effect; inconclusive = small, poorly fitted or top-dose-only effect; inactive = flat fitted curve, though single readings scatter.
Answer each item with its documented max response.

Input line: What max response value was documented for this compound, FC(F)(F)c1cccc(C2=CCN(CCc3ccc4ccccc4c3)CC2)c1 ?
Output line: -4.6% (inactive)

Input line: Now give it for COC[C@@H](NC(C)=O)C(=O)NCc1ccccc1 too.
Output line: 8.88% (inactive)

Input line: Now give it for CN1CCN(C(=O)O[C@H]2c3nccnc3C(=O)N2c2ccc(Cl)cn2)CC1 too.
Output line: 4.48% (inactive)

Input line: Now give it for CC(C)NCC(O)c1ccccc1Cl (stereo unspecified) too.
Output line: -12% (inactive)

Input line: Now give it for CC(=O)[C@H]1CC[C@H]2[C@@H]3CC[C@H]4C[C@H](O)CC[C@]4(C)[C@H]3C(=O)C[C@]12C too.
Output line: -4.21% (inactive)

Input line: Now give it for NCCc1cc(O)c(O)cc1O too.
Output line: 9.04% (inactive)

====

Answer each item with its documented growth, % of control.
test: qHTS profiling of the MIPE4 collection as inhibitors of Plasmodium falciparum (HB3) proliferation (AID 743347);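 also: plate controls were DMSO vehicle wells for no effect and artemisinin wells for full effect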; details: P. falciparum HB3 in erythrocytes, SYBR Green DNA, 72 h; at 28.5 µM (top of the series) unless noted
Express the result in % but write the number alone.

Input line: What growth, % of control value was documented for this molecule, CC(C)CC(N(C)C)C1(c2ccc(Cl)cc2)CCC1 (stereo unspecified) ?
Output line: 105

Input line: Now give it for Cc1sc2c(c1C)C(c1ccc(Cl)cc1)=N[C@@H](CC(=O)OC(C)(C)C)c1nnc(C)n1-2 too.
Output line: 12.7

Input line: Now give it for Cc1nc2n(c(=O)c1CCN1CCC(c3noc4cc(F)ccc34)CC1)CCCC2 too.
Output line: 60.5

Input line: Now give it for COc1cc2c(c(OC)c1OC)-c1ccc(OC)c(=O)cc1[C@@H](NC(C)=O)CC2 too.
Output line: 35.4

Input line: Now give it for NCC1(CC(=O)O)CCCCC1 too.
Output line: 94.9

Input line: Now give it for C#CCN(C)[C@H](C)Cc1ccccc1 too.
Output line: 95.7

====

assay: Inducers of the Endoplasmic Reticulum Stress Response (ERSR) in human glioma: Validation (AID 504836); settings: human glioma cells, ER stress response reporter; series mostly up to 38.3 µM; also: 0% is about no effect
Calls of active or inactive are those of the source. Calls follow the shape of the dose curve; as a rule, active = well fitted curve in the direction sought with a large enough effect; inconclusive = small, poorly fitted or top-dose-only effect, or effect the other way, or another doubt; inactive = no such curve, though single readings can be large or run the other way.
Reported endpoint: outcome

>>> df
                                chem_smiles  value_measured
0                  NC[C@H](O)c1ccc(O)c(O)c1        inactive
1          CN(C)CCCN1c2ccccc2Sc2ccc(Cl)cc21        inactive
2  Cc1ccc(S(=O)(=O)N[C@@H](CCCCN)C(=O)CCl)cc1        inactive
3  O=C(CCCN1CCC(O)(c2ccc(Cl)cc2)CC1)c1ccc(F)cc1        inactive

Input line: What outcome value was documented for this compound, CCCCc1oc2ccccc2c1C(=O)c1cc(I)c(OCCN(CC)CC)c(I)c1 ?
Output line: inactive

Input line: Now give it for CC[N+](C)(C)c1cccc(O)c1 too.
Output line: inactive
